Target: mouse CRF receptor, type 2β (mCRFR2β) (mouse) (UniProt Q60748)
Test: displacement of [125I-Tyr0]Svg from HEK-mCRFR2β membranes
Non-standard residues stand in square brackets, D forms with d. No end group written: not given here.
Catalogue of pKd readings, one per entry.
# pKd: negative log10 of molar concentration; output just the value

Example entries begin here.
binder	pKd
[dL]ELLRKMIEIEKQEKEKQQAANNRLLLDTI (not fully specified (C-terminus), also called compound 13) [[DLeu^11]Svg(11-40)]	7.68
[dF]ELLRKMIEIEKQEKEKQQAANNRLLLDTI (not fully specified (C-terminus), also called compound 12) [[DPhe^11]Svg(11-40)]	8.46

Now let's try a different one.
Identify measured pKd associated with LELLRKMIEIEKQEKEKQQAANNRLLLDTI (not fully specified (C-terminus), also called compound 14) [Svg(11-40)] 7.81
